Assign EC50 to each entry below.
- Subject of test: GABAA receptors composed of α1, β2 and γ2S subunits (Homo sapiens, UniProt P14867+P18507+P47870)
- Construct: α1:β2:γ2S cRNA ratio 1:1:10
- Sequence (P14867 28-456): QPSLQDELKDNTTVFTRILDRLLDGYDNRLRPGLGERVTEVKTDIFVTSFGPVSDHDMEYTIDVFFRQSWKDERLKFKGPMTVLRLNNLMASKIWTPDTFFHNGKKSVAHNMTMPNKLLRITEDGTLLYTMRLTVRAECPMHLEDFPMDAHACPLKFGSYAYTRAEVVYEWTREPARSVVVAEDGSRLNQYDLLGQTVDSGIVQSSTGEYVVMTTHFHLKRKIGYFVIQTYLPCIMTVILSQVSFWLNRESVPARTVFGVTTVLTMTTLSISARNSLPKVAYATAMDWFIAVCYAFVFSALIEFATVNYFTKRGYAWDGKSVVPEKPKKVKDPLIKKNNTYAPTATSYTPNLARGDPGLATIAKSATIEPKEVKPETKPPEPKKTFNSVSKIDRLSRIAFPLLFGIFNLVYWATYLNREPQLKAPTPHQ
- Sequence (P47870 26-512): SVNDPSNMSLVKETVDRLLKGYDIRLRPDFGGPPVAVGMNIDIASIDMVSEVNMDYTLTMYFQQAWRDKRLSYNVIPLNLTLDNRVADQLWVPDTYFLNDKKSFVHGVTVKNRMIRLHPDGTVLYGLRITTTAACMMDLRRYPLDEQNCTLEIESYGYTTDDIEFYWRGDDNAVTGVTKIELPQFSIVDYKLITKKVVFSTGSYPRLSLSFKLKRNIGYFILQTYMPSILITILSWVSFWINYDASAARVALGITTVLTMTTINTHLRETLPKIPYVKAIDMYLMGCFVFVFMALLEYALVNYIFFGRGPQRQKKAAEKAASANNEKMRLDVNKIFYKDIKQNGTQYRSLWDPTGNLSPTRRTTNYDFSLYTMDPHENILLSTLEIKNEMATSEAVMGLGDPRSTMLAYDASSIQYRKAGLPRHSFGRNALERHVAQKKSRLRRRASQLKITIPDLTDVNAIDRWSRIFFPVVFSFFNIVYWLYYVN
- Sequence (P18507 40-467 isoform P18507-1 limits assumed): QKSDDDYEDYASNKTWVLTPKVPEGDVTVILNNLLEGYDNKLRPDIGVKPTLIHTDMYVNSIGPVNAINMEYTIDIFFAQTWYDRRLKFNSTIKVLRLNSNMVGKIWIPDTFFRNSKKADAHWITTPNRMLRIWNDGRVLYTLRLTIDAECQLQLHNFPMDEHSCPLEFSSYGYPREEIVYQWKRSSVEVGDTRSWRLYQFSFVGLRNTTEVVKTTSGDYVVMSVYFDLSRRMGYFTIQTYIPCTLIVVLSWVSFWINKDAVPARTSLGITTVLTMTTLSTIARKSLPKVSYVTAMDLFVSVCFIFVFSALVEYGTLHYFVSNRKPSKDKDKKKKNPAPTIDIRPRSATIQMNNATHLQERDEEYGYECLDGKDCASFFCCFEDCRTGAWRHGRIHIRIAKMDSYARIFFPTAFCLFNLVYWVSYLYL
- Measurement protocol: Modulation of GABA-induced chloride currents (IGABA), two-microelectrode voltage-clamp in Xenopus laevis oocytes expressing GABAA receptors
Give bare numbers, in µM.

// known answers, use as guide
CC(=O)OC(C)(C)[C@H]1O[C@@]23O[C@@H]1C[C@@H](C)[C@@H]2[C@@]1(C)CC[C@@]24C[C@@]25CC[C@H](O[C@@H]2OC[C@H](O)[C@H](O)[C@H]2O)C(C)(C)[C@@H]5CC[C@H]4[C@]1(C)[C@H]3O = 26
CC(=O)OC(CC(C)C1C(=O)C(O)C2(C)C3CCC4C(C)(C)C(OC5OCC(O)C(O)C5O)CCC45CC35CCC12C)C1OC1(C)C (centres unmarked) = 27

Respectfully, I request EC50 for each entry included below.
1. C=C(C)[C@H]1O[C@@]23O[C@@H]1C[C@@H](C)[C@@H]2[C@@]1(C)CC[C@@]24C[C@@]25CC[C@H](O[C@@H]2OC[C@@H](O)[C@H](O)[C@H]2O)C(C)(C)[C@@H]5CC[C@H]4[C@]1(C)[C@H]3O
2. CC(=O)O[C@@H]1C[C@@]23C[C@@]24CC[C@H](O[C@@H]2OC[C@@H](O)[C@H](O)[C@H]2O)C(C)(C)[C@@H]4CC[C@H]3[C@]2(C)C[C@@H]3O[C@]4(C[C@@H](C)[C@@H]3[C@@]12C)O[C@H](O)[C@@]1(C)O[C@@H]41

26
36

Field request: EC50 | item: C[C@@H]1C[C@H]2O[C@@]3(O[C@@H]2C(C)(C)O)[C@H](O)[C@@]2(C)[C@@H]4CC[C@H]5C(C)(C)[C@@H](O[C@@H]6OC[C@@H](O)[C@H](O)[C@H]6O)CC[C@@]56C[C@@]46CC[C@]2(C)[C@@H]13 [Compound 6, cimigenol-3-O-β-D-xylopyranoside]
28

Ref: patent EP2438921A1
